test system: S. aureus 11540 MRSA
Quantity measured: MIC (µg/mL)
Please give a number only; it is taken to be in µg/mL.

# Compound, MIC, µg/mL
measured = [
    ("CCc1cc(CCC[C@H](C)N)cc(-c2cc3cn(-c4ccc(CNCCCNC(=N)N)cc4)c(=O)nc3[nH]2)c1F [Compound 2]", 0.25),
    ("C=CCC[C@H](NCCCNC(=N)N)c1ccc(-n2cc3cc(-c4cc(CCC[C@H](C)N)cc(Cl)c4F)[nH]c3nc2=O)cc1 [Compound 14]", 0.5),
    ("C=CC[C@H](NCCCNC(=N)N)c1ccc(-n2cc3cc(-c4cc(CCC[C@H](C)N)cc(Cl)c4F)[nH]c3nc2=O)cc1 [Compound 9]", 0.25),
    ("C=C[C@H](NCCCNC(=N)N)c1ccc(-n2cc3cc(-c4cc(CCC[C@H](C)N)cc(Cl)c4F)[nH]c3nc2=O)cc1 [Compound 10]", 0.25),
    ("C[C@@H](N)CCCc1cc(Cl)c(F)c(-c2cc3cn(-c4ccc(CNCCCNC(=N)N)cc4)c(=O)nc3[nH]2)c1 [Compound 1]", 0.125),
    ("C[C@H](N)CCCc1cc(-c2cc3cn(-c4ccc(CNCCCNC(=N)N)cc4)c(=O)nc3[nH]2)c(F)c(Cl)c1F [Compound 13]", 0.25),
]

Input line: Please give measured MIC of the following entry: C[C@H](N)CCCc1cc(OC(F)(F)F)c(F)c(-c2cc3cn(-c4ccc([C@H](C)NCCCNC(=N)N)cc4)c(=O)nc3[nH]2)c1 [Compound 3]
Output line: 0.25

* * *

test system: E. coli ATCC25922; assay: MIC, microtiter-based liquid assay (CLSI); assay type: cell-based; details: Escherichia coli, ATCC25922, read-out: MIC E. coli ATCC25922 + 50% HS
Reported MIC values for the following compounds.
State the answer as a number, implicitly in µg/mL.

Solved entries (count: 3):
# Compound, Assay system, MIC / µg/mL
rows = [
    ("C[C@H](NCCCNC(=N)N)c1ccc(-n2cc3cc(-c4cc(CCC[C@@H](N)CO)cc(Cl)c4F)[nH]c3nc2=O)cc1", "E. coli ATCC25922", 0.25),
    ("CCc1cc(CCC[C@H](C)N)cc(-c2cc3cn(-c4ccc(CNCCCNC(=N)N)cc4)c(=O)nc3[nH]2)c1F", "E. coli ATCC25922", 0.25),
    ("C=C[C@@H](NCCCNC(=N)N)c1ccc(-n2cc3cc(-c4cc(CCC[C@H](C)N)cc(Cl)c4F)[nH]c3nc2=O)cc1", "E. coli ATCC25922", 0.5),
]

Input line: Write MIC of "CC(C)c1cc(CCC[C@H](C)N)cc(-c2cc3cn(-c4ccc([C@H](C)NCCCNC(=N)N)cc4)c(=O)nc3[nH]2)c1F" ; system used: E. coli ATCC25922
Output line: 1

Input line: Would you please give the reported MIC of CN(C)c1cc(NC(=O)CNC(C)(C)C)c(O)c2c1C[C@H]1C[C@H]3[C@H](N(C)C)C(O)=C(C(N)=O)C(=O)[C@@]3(O)C(O)=C1C2=O [Tigecycline, reference compound] with E. coli ATCC25922?
Output line: 0.25

Input line: State the measured MIC (E. coli ATCC25922) of "C[C@H](N)CCCc1cc(OC(F)(F)F)c(F)c(-c2cc3cn(-c4ccc([C@H](C)NCCCNC(=N)N)cc4)c(=O)nc3[nH]2)c1"
Output line: 0.5

Input line: Recall the reported MIC of "C[C@H](N)CCCc1cc(Cl)c(F)c(-c2cc3cn(-c4ccc([C@H](N)CCCCNC(=N)N)cc4)c(=O)nc3[nH]2)c1" on E. coli ATCC25922 and write it down.
Output line: 0.125

Input line: Given "C[C@H](N)CCCc1cc(Cl)c(F)c(-c2cc3cn(-c4ccc([C@H](CCNc5nccs5)NCCCNC(=N)N)cc4)c(=O)nc3[nH]2)c1" , report its MIC on E. coli ATCC25922.
Output line: 0.5

Input line: Report value only: MIC, E. coli ATCC25922, "C=C[C@H](NCCCNC(=N)N)c1ccc(-n2cc3cc(-c4cc(CCC[C@H](C)N)cc(Cl)c4F)[nH]c3nc2=O)cc1"
Output line: 0.25

Input line: Write MIC of "C[C@H](NCCCNC(=N)N)c1ccc(-n2cc3cc(-c4cc(CCC[C@@H](N)CF)cc(Cl)c4F)[nH]c3nc2=O)cc1" ; system used: E. coli ATCC25922
Output line: 0.5

* * *

test system: E. coli 1705878; experiment: MIC, microtiter-based liquid assay (CLSI); assay type: cell-based; settings: Escherichia coli, MDR strain
The entries below come with measured MIC values attached.
Write the value in µg/mL as a bare number.

# Sample smiles, Numeric value
data = [
    ("CC(C)c1cc(CCC[C@H](C)N)cc(-c2cc3cn(-c4ccc([C@H](C)NCCCNC(=N)N)cc4)c(=O)nc3[nH]2)c1F", 1),
    ("C[C@H](N)CCCc1cc(OC(F)(F)F)c(F)c(-c2cc3cn(-c4ccc([C@H](C)NCCCNC(=N)N)cc4)c(=O)nc3[nH]2)c1", 0.5),
]

Input line: Please report MIC for the following molecule: "COC[C@H](N)CCCc1cc(Cl)c(F)c(-c2cc3cn(-c4ccc(CNCCCNC(=N)N)cc4)c(=O)nc3[nH]2)c1"
Output line: 1

* * *

A set of compounds tested on S. aureus 11540 MRSA, with measured MIC:
Write the number in µg/mL without appending the unit.

Input line: Name the value of MIC reported for "C=C[C@@H](NCCCNC(=N)N)c1ccc(-n2cc3cc(-c4cc(CCC[C@H](C)N)cc(Cl)c4F)[nH]c3nc2=O)cc1" when tested on S. aureus 11540 MRSA.
Output line: 0.5

Input line: # assay system S. aureus 11540 MRSA: give MIC of C[C@H](NCCCNC(=N)N)c1ccc(-n2cc3cc(-c4cc(C5CCC(CN)CC5)cc(Cl)c4F)[nH]c3nc2=O)cc1 (stereo partly drawn)
Output line: 0.25

Input line: Provide MIC, tested on S. aureus 11540 MRSA, for "C[C@H](NCCCNC(=N)N)c1ccc(-n2cc3cc(-c4cc(CCC5(CN)CC5)cc(Cl)c4F)[nH]c3nc2=O)cc1" .
Output line: 0.25

Input line: Fill: MIC (S. aureus 11540 MRSA) for this compound "COC[C@H](N)CCCc1cc(Cl)c(F)c(-c2cc3cn(-c4ccc(CNCCCNC(=N)N)cc4)c(=O)nc3[nH]2)c1"
Output line: 0.25

Input line: Report measured MIC on S. aureus 11540 MRSA; entry: "C[C@H](N)CCCc1cc(Cl)c(F)c(-c2cc3cn(-c4ccc([C@H](CCNc5nccs5)NCCCNC(=N)N)cc4)c(=O)nc3[nH]2)c1"
Output line: 0.5

* * *

tested on: E. coli ATCC25922; experiment: MIC, microtiter-based liquid assay (CLSI); assay type: cell-based; conditions: Escherichia coli, ATCC25922, read-out: MIC E. coli ATCC25922 + 50% HS
Quantity measured: MIC (µg/mL)
Kindly provide the numeric value in µg/mL only, without the unit symbol.

Example results:
# Sample smiles, Numeric value
measured = [
    ("C[C@H](NCCCNC(=N)N)c1ccc(-n2cc3cc(-c4cc(CCC5(CN)CC5)cc(Cl)c4F)[nH]c3nc2=O)cc1", 0.5),
    ("C=CCC[C@H](NCCCNC(=N)N)c1ccc(-n2cc3cc(-c4cc(CCC[C@H](C)N)cc(Cl)c4F)[nH]c3nc2=O)cc1", 2),
]

Input line: Fill in: MIC on E. coli ATCC25922, entry "C[C@H](N)CCCc1cc(-c2cc3cn(-c4ccc([C@H](C)NCCCNC(=N)N)cc4)c(=O)nc3[nH]2)c(F)c(Cl)c1F"
Output line: 0.5

Input line: // fetch MIC for "COC[C@H](N)CCCc1cc(Cl)c(F)c(-c2cc3cn(-c4ccc(CNCCCNC(=N)N)cc4)c(=O)nc3[nH]2)c1" ; system: E. coli ATCC25922
Output line: 0.25

Input line: // output MIC; input "C[C@H](N)CCCc1cc(-c2cc3cn(-c4ccc(CNCCCNC(=N)N)cc4)c(=O)nc3[nH]2)c(F)c(Cl)c1F" ; system E. coli ATCC25922
Output line: 0.25

Input line: Provide the reported MIC (system: E. coli ATCC25922) for "C[C@@H](N)CCCc1cc(Cl)c(F)c(-c2cc3cn(-c4ccc(CNCCCNC(=N)N)cc4)c(=O)nc3[nH]2)c1"
Output line: 0.125

* * *

system: B. pseudomallei; test: microbe, parasite or virus in culture; type: cell-based; conditions: Burkholderia pseudomallei, read-out: B. pseudomallei MIC90
Here the recorded MIC90 is given for each entry.
Numbers only; they are read as µg/mL.

# Molecule, MIC90 / µg/mL
measured = [
    ("C[C@H](N)CCCc1cc(Cl)c(F)c(-c2cc3cn(-c4ccc([C@H](CCNc5nccs5)NCCCNC(=N)N)cc4)c(=O)nc3[nH]2)c1 [Compound 15]", 16),
    ("CC(C)(O/N=C(\\C(=O)N[C@@H]1C(=O)N2C(C(=O)[O-])=C(C[n+]3ccccc3)CS[C@H]12)c1csc(N)n1)C(=O)O [Ceftazidime, reference compound]", 4),
]

Shift focus to the following entry.
Input line: Look up MIC90 of C=CCC[C@H](NCCCNC(=N)N)c1ccc(-n2cc3cc(-c4cc(CCC[C@H](C)N)cc(Cl)c4F)[nH]c3nc2=O)cc1 [Compound 14] and report it.
Output line: 4
